A collection of compounds and their measured Dmax
- subject.of.test: CDK2 (Homo sapiens (Human), UniProt P24941)
- protocol.summary: CDK2 NanoBiT assay (HiBiT-tagged CDK2 degradation)
- Assay type: cell-based
- test.settings: HEK293, HEK293 clonal line, C-terminal HiBiT tag on CDK2, LgBiT; 24 hours

# example entries with known answers
compound: Cc1cccc(N2CC(OC(=O)NC3CN(c4cc(F)c(C5CCC(=O)NC5=O)c(F)c4)C3)C2)n1 (stereo not shown)
subject.of.test: CDK2 (Homo sapiens (Human), UniProt P24941)
reported.measurement: 50 to 80%
//
compound: Cc1cc(Cl)ccc1N(C)C(=O)N1CC(OC(=O)NC2CN(c3cc(F)c(C4CCC(=O)NC4=O)c(F)c3)C2)C1 (stereo not shown)
subject.of.test: CDK2 (Homo sapiens (Human), UniProt P24941)
reported.measurement: 10 to 50%
//
compound: Cc1cccc(N(C)C(=O)C23CC(OC(=O)NC4CN(c5cc(F)c(C6CCC(=O)NC6=O)c(F)c5)C4)(C2)C3)c1 (stereo not shown)
subject.of.test: CDK2 (Homo sapiens (Human), UniProt P24941)
reported.measurement: 50 to 80%

Alright, here's another compound for you.
Entry CN(C(=O)C12CC(OC(=O)NC3CN(c4cc(F)c(C5CCC(=O)NC5=O)c(F)c4)C3)(C1)C2)c1cccc(C#N)c1 (stereo not shown) — recorded Dmax = 10 to 50%
